- testTarget: d-enCas12a-Ultra (Acidaminococcus sp., UniProt U2UMQ6 1-1307, E174R;S542R;K548R;M537R;F870L;D908A;E993A;D1235A)
- runDescription: Spec-seq (native PAGE EMSA with sequencing of bound and unbound); 25 mM Tris-HCl pH 7.4, 150 mM KCl, 5 mM MgCl2, 10% glycerol, 1 mM DTT, 40 ng/uL salmon sperm DNA; 400 nM Cas12a, 480 nM crRNA, 50 nM library, 37 C 1 h; native PAGE at room temperature; high values mean tight binding;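 note: relative affinity from the bound to unbound sequence frequency ratio in Spec-seq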
- experimentalParameters: protein: recombinant
// reported binding signal per item
reportedEndpoint: binding signal

| binder | reported |
| --- | --- |
| GCAT (dsDNA) DNA 1: GCTATCTAGTGCTCAGTACGCACTGGCATAGGAAACTTCTGGCAGGACCAGGTCATGAGATCGGAAGAGCACACGTCTGAACTCCAGTCA DNA 2: TGACTGGAGTTCAGACGTGTGCTCTTCCGATCTCATGACCTGGTCCTGCCAGAAGTTTCCTATGCCAGTGCGTACTGAGCACTAGATAGC RNA: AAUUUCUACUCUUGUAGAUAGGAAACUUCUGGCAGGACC | -3.45 lnKA |
| TCAT (dsDNA) DNA 1: GCTATCTAGTGCTCAGTACGCACTGTCATAGGAAACTTCTGGCAGGACCAGGTCATGAGATCGGAAGAGCACACGTCTGAACTCCAGTCA DNA 2: TGACTGGAGTTCAGACGTGTGCTCTTCCGATCTCATGACCTGGTCCTGCCAGAAGTTTCCTATGACAGTGCGTACTGAGCACTAGATAGC RNA: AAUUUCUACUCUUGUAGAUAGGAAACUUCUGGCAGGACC | -3.42 lnKA |
| GTGA (dsDNA) DNA 1: GCTATCTAGTGCTCAGTACGCACTGGTGAAGGAAACTTCTGGCAGGACCAGGTCATGAGATCGGAAGAGCACACGTCTGAACTCCAGTCA DNA 2: TGACTGGAGTTCAGACGTGTGCTCTTCCGATCTCATGACCTGGTCCTGCCAGAAGTTTCCTTCACCAGTGCGTACTGAGCACTAGATAGC RNA: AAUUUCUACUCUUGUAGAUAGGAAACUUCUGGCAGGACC | -3.14 lnKA |
